I'd be grateful if you could share measured SILAC ratio Mtch1 for these entries.
- Tested system: AEA-DA lipid probe targets in Neuro2a cells (Mus musculus, UniProt Q791T5)
- Sequence (Q791T5 whole entry): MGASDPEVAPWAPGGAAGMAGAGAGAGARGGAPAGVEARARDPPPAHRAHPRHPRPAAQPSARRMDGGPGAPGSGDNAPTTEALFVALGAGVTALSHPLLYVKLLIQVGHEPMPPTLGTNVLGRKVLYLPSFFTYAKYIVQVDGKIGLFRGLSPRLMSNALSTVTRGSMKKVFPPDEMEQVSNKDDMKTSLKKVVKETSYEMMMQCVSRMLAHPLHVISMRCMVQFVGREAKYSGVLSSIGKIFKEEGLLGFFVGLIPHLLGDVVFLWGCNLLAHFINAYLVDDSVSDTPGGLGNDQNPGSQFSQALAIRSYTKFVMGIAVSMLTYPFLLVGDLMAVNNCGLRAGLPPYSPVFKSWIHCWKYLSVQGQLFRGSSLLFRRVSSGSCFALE
- Measurement setup: competitor 25 μM
Numbers only.

For orientation, consider the following solved cases.
C=CCN(C)CCCCCCOc1ccc(C(=O)c2ccc(Br)cc2)c(F)c1 [Ro 48-8071, reference compound] : 0.9
CN1CCN(C(=O)c2[nH]c3ccc([N+](=O)[O-])cc3c2-c2ccccc2)CC1 [MJN228] : 1.2
CN1CCN(C(=O)c2c(-c3ccccc3)c3cc([N+](=O)[O-])ccc3n2C)CC1 [KML110] : 1.2

Pending compound:
[in] Return reported SILAC ratio Mtch1. Input compound: O=C(/C=C/c1cccnc1)NCCCCC1CCN(C(=O)c2ccccc2)CC1 [FK-866, reference compound]
[out] 1.0
